Where these numbers come from: patent US20250288553A1

- Experimental protocol: Cytotoxicity assay J774A.1
- Assay type: cell-based, murine
- Recorded conditions: mouse, J774A.1 macrophage-like cells; J774A.1 cells; read-out: Cytotoxicity (IC50) J774
molecules and their reported IC50

{"columns": ["Molecule", "IC50"],
 "data": [
  ["CO[C@@H]1c2cc(OC(=O)C(C)(C)C)c(O)cc2O[C@@]2(C)CC[C@H]3C(C)(C)CCC[C@]3(C)[C@@H]12 [Compound 19, 15-α-methoxypuupehenol monopivalate]", "56.4 µM"],
  ["CC1(C)CCC[C@]2(C)[C@H]3C=C4C=C(O)C(=O)C=C4O[C@@]3(C)CC[C@@H]12 [Compound 1, (+)-Puupehenone]", "23.2 µM"],
  ["CCC(=O)Oc1cc2c(cc1OC(=O)CC)[C@@H](OC)[C@@H]1[C@@]3(C)CCCC(C)(C)[C@@H]3CC[C@]1(C)O2 [Compound 16]", "60.6 µM"],
  ["CCC(=O)Oc1cc2c(cc1OC(=O)CC)[C@@H](OC(=O)CC)[C@@H]1[C@@]3(C)CCCC(C)(C)[C@@H]3CC[C@]1(C)O2 [Compound 21]", "26.4 µM"],
  ["CO[C@@H]1c2cc(OC(C)=O)c(OC(C)=O)cc2O[C@@]2(C)CC[C@H]3C(C)(C)CCC[C@]3(C)[C@@H]12 [Compound 15]", "59.1 µM"]
]}

Query block: # query: IC50 of entry CC(=O)Oc1cc2c(cc1OC(C)=O)[C@@H](OC(C)=O)[C@@H]1[C@@]3(C)CCCC(C)(C)[C@@H]3CC[C@]1(C)O2 [Compound 20, 15-α-acetoxypuupehenol diacetate]
Result block: > 200 µM
